Below, each of the variants is paired with its reported normalized RNA/DNA level without ligand (log10) value.
B1: library; a variant is named by its letters at N, in order (parent)
chain: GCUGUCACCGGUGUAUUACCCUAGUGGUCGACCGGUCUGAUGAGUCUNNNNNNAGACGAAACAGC

# Variants of: B1
# Measurement Protocol: normalized RNA/DNA level without ligand (relative to sTRSVctl = 100) (log10 (% of sTRSVctl)); ligand: hypoxanthine (xanthine aptamer); higher = less ribozyme self-cleavage, higher mRNA level
# Condition Context: HEK293T, reporter: mCherry (pCS4076), ligand present: no
Parameter Measured: normalized RNA/DNA level without ligand (log10)

Entry Sequence	Result Value
GCUGUCACCGGUGUAUUACCCUAGUGGUCGACCGGUCUGAUGAGUCUGUAAAGAGACGAAACAGC [GUAAAG]	1.49
GCUGUCACCGGUGUAUUACCCUAGUGGUCGACCGGUCUGAUGAGUCUGUGUUCAGACGAAACAGC [GUGUUC]	1.84
GCUGUCACCGGUGUAUUACCCUAGUGGUCGACCGGUCUGAUGAGUCUCUAAACAGACGAAACAGC [CUAAAC]	1.83
GCUGUCACCGGUGUAUUACCCUAGUGGUCGACCGGUCUGAUGAGUCUCUAGCGAGACGAAACAGC [CUAGCG]	1.82
GCUGUCACCGGUGUAUUACCCUAGUGGUCGACCGGUCUGAUGAGUCUCCAAGUAGACGAAACAGC [CCAAGU]	1.86
GCUGUCACCGGUGUAUUACCCUAGUGGUCGACCGGUCUGAUGAGUCUCGUCUCAGACGAAACAGC [CGUCUC]	2.03
GCUGUCACCGGUGUAUUACCCUAGUGGUCGACCGGUCUGAUGAGUCUACUCUAAGACGAAACAGC [ACUCUA]	1.86
GCUGUCACCGGUGUAUUACCCUAGUGGUCGACCGGUCUGAUGAGUCUUCGUUCAGACGAAACAGC [UCGUUC]	1.95
GCUGUCACCGGUGUAUUACCCUAGUGGUCGACCGGUCUGAUGAGUCUUUCCAUAGACGAAACAGC [UUCCAU]	1.88
GCUGUCACCGGUGUAUUACCCUAGUGGUCGACCGGUCUGAUGAGUCUGAUUGCAGACGAAACAGC [GAUUGC]	1.65
GCUGUCACCGGUGUAUUACCCUAGUGGUCGACCGGUCUGAUGAGUCUGUCAUGAGACGAAACAGC [GUCAUG]	1.53
GCUGUCACCGGUGUAUUACCCUAGUGGUCGACCGGUCUGAUGAGUCUAGACAAAGACGAAACAGC [AGACAA]	1.74
GCUGUCACCGGUGUAUUACCCUAGUGGUCGACCGGUCUGAUGAGUCUUUGGUGAGACGAAACAGC [UUGGUG]	1.81
GCUGUCACCGGUGUAUUACCCUAGUGGUCGACCGGUCUGAUGAGUCUUUGGGAAGACGAAACAGC [UUGGGA]	1.71
GCUGUCACCGGUGUAUUACCCUAGUGGUCGACCGGUCUGAUGAGUCUUAAGAGAGACGAAACAGC [UAAGAG]	1.53
GCUGUCACCGGUGUAUUACCCUAGUGGUCGACCGGUCUGAUGAGUCUUCUACUAGACGAAACAGC [UCUACU]	1.92
GCUGUCACCGGUGUAUUACCCUAGUGGUCGACCGGUCUGAUGAGUCUUUCCCCAGACGAAACAGC [UUCCCC]	1.88
GCUGUCACCGGUGUAUUACCCUAGUGGUCGACCGGUCUGAUGAGUCUUGACAAAGACGAAACAGC [UGACAA]	1.74
GCUGUCACCGGUGUAUUACCCUAGUGGUCGACCGGUCUGAUGAGUCUCCUAGGAGACGAAACAGC [CCUAGG]	1.77
GCUGUCACCGGUGUAUUACCCUAGUGGUCGACCGGUCUGAUGAGUCUCAAAUAAGACGAAACAGC [CAAAUA]	1.74
GCUGUCACCGGUGUAUUACCCUAGUGGUCGACCGGUCUGAUGAGUCUAGUACGAGACGAAACAGC [AGUACG]	1.38
GCUGUCACCGGUGUAUUACCCUAGUGGUCGACCGGUCUGAUGAGUCUAACCGCAGACGAAACAGC [AACCGC]	1.79
GCUGUCACCGGUGUAUUACCCUAGUGGUCGACCGGUCUGAUGAGUCUCUUCAGAGACGAAACAGC [CUUCAG]	1.84
GCUGUCACCGGUGUAUUACCCUAGUGGUCGACCGGUCUGAUGAGUCUGUAUGAAGACGAAACAGC [GUAUGA]	1.64
GCUGUCACCGGUGUAUUACCCUAGUGGUCGACCGGUCUGAUGAGUCUAUCUAGAGACGAAACAGC [AUCUAG]	1.61
GCUGUCACCGGUGUAUUACCCUAGUGGUCGACCGGUCUGAUGAGUCUGCUAACAGACGAAACAGC [GCUAAC]	1.66
GCUGUCACCGGUGUAUUACCCUAGUGGUCGACCGGUCUGAUGAGUCUCACCGAAGACGAAACAGC [CACCGA]	1.8
GCUGUCACCGGUGUAUUACCCUAGUGGUCGACCGGUCUGAUGAGUCUUAACCGAGACGAAACAGC [UAACCG]	1.68
GCUGUCACCGGUGUAUUACCCUAGUGGUCGACCGGUCUGAUGAGUCUGGACAGAGACGAAACAGC [GGACAG]	1.47
GCUGUCACCGGUGUAUUACCCUAGUGGUCGACCGGUCUGAUGAGUCUGCUUACAGACGAAACAGC [GCUUAC]	1.7
GCUGUCACCGGUGUAUUACCCUAGUGGUCGACCGGUCUGAUGAGUCUAAAGUAAGACGAAACAGC [AAAGUA]	1.73
GCUGUCACCGGUGUAUUACCCUAGUGGUCGACCGGUCUGAUGAGUCUGCCAAGAGACGAAACAGC [GCCAAG]	1.4
GCUGUCACCGGUGUAUUACCCUAGUGGUCGACCGGUCUGAUGAGUCUCCCUCUAGACGAAACAGC [CCCUCU]	1.99
GCUGUCACCGGUGUAUUACCCUAGUGGUCGACCGGUCUGAUGAGUCUCAUUAGAGACGAAACAGC [CAUUAG]	1.73
GCUGUCACCGGUGUAUUACCCUAGUGGUCGACCGGUCUGAUGAGUCUGGAUAUAGACGAAACAGC [GGAUAU]	1.78
GCUGUCACCGGUGUAUUACCCUAGUGGUCGACCGGUCUGAUGAGUCUACAACAAGACGAAACAGC [ACAACA]	1.85
GCUGUCACCGGUGUAUUACCCUAGUGGUCGACCGGUCUGAUGAGUCUGGAUCCAGACGAAACAGC [GGAUCC]	1.95
GCUGUCACCGGUGUAUUACCCUAGUGGUCGACCGGUCUGAUGAGUCUGGAAACAGACGAAACAGC [GGAAAC]	1.84
GCUGUCACCGGUGUAUUACCCUAGUGGUCGACCGGUCUGAUGAGUCUUGUCCUAGACGAAACAGC [UGUCCU]	1.93
GCUGUCACCGGUGUAUUACCCUAGUGGUCGACCGGUCUGAUGAGUCUUUAAAAAGACGAAACAGC [UUAAAA]	1.79
GCUGUCACCGGUGUAUUACCCUAGUGGUCGACCGGUCUGAUGAGUCUUAGCAUAGACGAAACAGC [UAGCAU]	1.77
GCUGUCACCGGUGUAUUACCCUAGUGGUCGACCGGUCUGAUGAGUCUUGAGUCAGACGAAACAGC [UGAGUC]	1.97
GCUGUCACCGGUGUAUUACCCUAGUGGUCGACCGGUCUGAUGAGUCUAGGACCAGACGAAACAGC [AGGACC]	1.88
GCUGUCACCGGUGUAUUACCCUAGUGGUCGACCGGUCUGAUGAGUCUACCUGCAGACGAAACAGC [ACCUGC]	1.91
GCUGUCACCGGUGUAUUACCCUAGUGGUCGACCGGUCUGAUGAGUCUUAUCUGAGACGAAACAGC [UAUCUG]	1.71
